- tested-target: CYP2D6 (Homo sapiens, UniProt P10635)
- Construct: human liver microsomes (BD Gentest); tissue BD Gentest; host or cells: human liver microsomes
- Sequence (P10635 whole entry): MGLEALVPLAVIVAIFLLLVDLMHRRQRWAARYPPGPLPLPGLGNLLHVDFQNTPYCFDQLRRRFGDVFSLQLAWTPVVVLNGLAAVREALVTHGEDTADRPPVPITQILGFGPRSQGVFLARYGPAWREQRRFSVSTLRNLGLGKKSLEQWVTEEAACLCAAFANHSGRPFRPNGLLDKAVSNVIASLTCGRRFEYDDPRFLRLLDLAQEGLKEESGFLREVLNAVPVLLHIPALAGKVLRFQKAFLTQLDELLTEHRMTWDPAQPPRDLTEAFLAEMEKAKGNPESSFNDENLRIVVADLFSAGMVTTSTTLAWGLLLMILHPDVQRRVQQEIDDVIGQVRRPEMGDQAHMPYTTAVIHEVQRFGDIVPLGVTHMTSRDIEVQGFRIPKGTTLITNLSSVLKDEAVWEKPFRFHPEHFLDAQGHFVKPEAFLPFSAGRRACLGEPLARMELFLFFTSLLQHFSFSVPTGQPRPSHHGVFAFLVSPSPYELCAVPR
- test-name: in vitro
- Assay type: in vitro ADME
- condition-set: human, microsomes, pH 7.4
Please go through the items and note down their inhibition at 25 min, 2.2 µM.
One number for each entry, in %.

Study these solved cases before continuing.
>>> val("Cc1cc2c(NC(=O)N[C@@H]3CC(C)(C)Oc4c3ccc(F)c4F)cccc2cn1")
0
>>> val("Cc1cc2c(NC(=O)N[C@@H]3CC(C)(C)Oc4c(OC(F)(F)F)cccc43)cccc2cn1")
16
>>> val("Cc1cc2c(NC(=O)N[C@@H]3CCOc4c(OC(F)(F)F)cccc43)cccc2cn1")
9.5
>>> val("Cc1cc2c(NC(=O)N[C@@H]3CC(CF)(CF)Oc4cc(F)ccc43)cccc2cn1")
7.9

// input: 4 molecules below; output: inhibition at 25 min, 2.2 µM for each
1. CCC1(CC)C[C@@H](NC(=O)Nc2cccc3cnc(Cl)cc23)c2cccc(F)c2O1
2. Cc1cc2c(NC(=O)N[C@@H]3CC(CF)(CF)Oc4ccc(F)cc43)cccc2cn1
3. CCCC1(CCC)C[C@@H](NC(=O)Nc2cccc3cnc(C)cc23)c2cccc(F)c2O1
4. Cc1cc2c(NC(=O)N[C@@H]3CC(CF)(CF)Oc4c(OC(F)(F)F)cccc43)cccc2cn1

Reply:
1: 0.68; 2: 12; 3: 0; 4: 9
